# tested system: T1, extracellular domain (ECD) of human TrkA protein, N-terminal flag tag and C-terminal His tag (PHA) (human, UniProt P04629 33-423)
# T1 construct: Made in 293-F cells and purified by IMAC; also called TrkA ECD protein; TrkA (ECD); not shown: flag tag at the N-terminus (after the signal peptide); His tag at the C-terminus
# T1 sequence (P04629 33-423): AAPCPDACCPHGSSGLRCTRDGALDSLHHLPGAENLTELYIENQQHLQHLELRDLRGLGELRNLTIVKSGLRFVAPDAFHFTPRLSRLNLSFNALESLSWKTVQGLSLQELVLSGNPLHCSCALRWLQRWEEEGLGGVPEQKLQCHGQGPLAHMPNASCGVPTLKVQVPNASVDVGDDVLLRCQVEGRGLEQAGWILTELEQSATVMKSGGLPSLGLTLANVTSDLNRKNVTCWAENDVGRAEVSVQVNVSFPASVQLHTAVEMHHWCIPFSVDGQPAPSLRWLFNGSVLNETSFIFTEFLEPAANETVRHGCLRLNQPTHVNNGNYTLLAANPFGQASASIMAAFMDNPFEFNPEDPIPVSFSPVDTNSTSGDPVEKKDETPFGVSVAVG
# method notes: BLI (ForteBio)
readout: Kd (nM)

- binder: "PHD22 (antibody, V domains shown) VH: QVQLVQSGAEVKKPGASVKVSCKASGYTFTEYWMHWVRQAPGQGLEWIGTIYPGNSDTSYAQKFQGRVTLTRDTSTSTAYMELSSLRSEDTAVYYCTRFYFEDWYFDVWGQGTTVTVSS VL: DIQMTQSPSSLSASVGDRVTITCRASSSISWLYWFQQKPGKAPKPLIYYTSTLGSGVPSRFSGSGSGTDYTLTISSLQPEDFATYYCQQWHSYPPTFGGGTKVEIK"
  measurement unit: "nM"
  number: 23.8
- binder: "PHD24 (antibody, V domains shown) VH: QVQLVQSGAEVKKPGASVKVSCKASGYTFTTYWMHWVRQAPGQGLEWIGTIYPGNSDTSLAQKFQGRVTLTRDTSTSTAYMELSSLRSEDTAVYYCTRFYFEDWYFDVWGQGTTVTVSS VL: DIQMTQSPSSLSASVGDRVTITCRASSSISWLYWFQQKPGKAPKPLIYYTSTLGSGVPSRFSGSGSGTDYTLTISSLQPEDFATYYCQQWHSYPPTFGGGTKVEIK"
  measurement unit: "nM"
  number: 11.6
